Assay: Half life in mouse at 3 mg/kg, po or 1 mg/kg, iv
Assay type: ADME, organism-based
Conditions: in vivo
# label = 1 if half-life < 2 h else 0

Answered cases to consult:
# molecule, class-assignment
records = [
    ("CCCCc1ccc(Nc2nc(C(C)(C)C(=O)O)cs2)cc1", 0),
    ("CCC(C)c1ccc(Nc2nc(CC(=O)O)cs2)cc1 (racemic)", 0),
    ("CC(C)(C)c1ccc(Nc2nc(CC(=O)O)cs2)cc1", 1),
    ("O=C(O)Cc1csc(Nc2ccc(OCCC(F)(F)F)cc2)n1", 1),
    ("CCCCc1ccc(Nc2nc(CC(=O)O)cs2)cc1", 0),
]

**Query** Quick check: half-life of CCCCc1ccc(Nc2nc(CC(=O)O)c(Cl)s2)cc1 under 2 h?
**Result** 1

**Query** Say whether its half-life is strictly beneath 2 h. Entry: CCCCc1ccc(Nc2nc(CC(=O)O)c(C)s2)cc1
**Result** 1

**Query** Would you kindly verify if half-life of CCCCc1ccc(Nc2nc(C(C)C(=O)O)cs2)cc1 (stereo not drawn) is strictly less than 2 h?
**Result** 1
